system-under-test: D(2) dopamine receptor (Sus scrofa)
method-description: The compound was evaluated for the binding affinity towards Dopamine receptor D2 at low affinity state.
pKi: −log10 of the molar value.
quantity-name: pKi

* Oc1cc2c(c(Br)c1O)CCNCC2c1ccccc1 (stereo unspecified) | 5.70

// provenance: BindingDB's records for doi:10.1021/jm00116a004
